- study.target: T1, cynomolgus monkey IL-33 expressed with a C-terminal hexahistidine tag (cynomolgus monkey)
- T1 construct: also called MfIL-33-6His; Mf-IL-33-6His
- T1 chain: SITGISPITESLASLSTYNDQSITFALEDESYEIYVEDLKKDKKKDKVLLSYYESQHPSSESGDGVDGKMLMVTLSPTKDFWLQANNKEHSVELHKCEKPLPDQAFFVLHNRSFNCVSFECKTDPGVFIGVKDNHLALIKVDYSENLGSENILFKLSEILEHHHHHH
- method.notes: SPR 37C pH7.4, mAb captured
- Protocol: Equilibrium dissociation constants (KD values) for IL-33 binding to purified anti-IL-33 monoclonal antibodies were determined using a real-time surface plasmon resonance biosensor using a Biacore 4000 instrument. […] Association of either hIL-33 or MfIL-33-6His to the captured monoclonal antibody was monitored for 4 minutes and their dissociation in ABS-ET running buffer was monitored for 10 minutes. […]
Task for the reader: assign each of the following binders its reported t½.
Output should be the measured figure followed by the unit it is expressed in.

Query: Field request: t½ | item: H4H9675P (antibody, human IgG4, V domains shown, Human IgG4 Fc (H4H)) VH: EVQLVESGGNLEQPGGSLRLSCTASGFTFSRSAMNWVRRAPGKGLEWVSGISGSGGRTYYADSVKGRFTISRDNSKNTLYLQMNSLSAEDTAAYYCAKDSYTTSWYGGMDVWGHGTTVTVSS VL: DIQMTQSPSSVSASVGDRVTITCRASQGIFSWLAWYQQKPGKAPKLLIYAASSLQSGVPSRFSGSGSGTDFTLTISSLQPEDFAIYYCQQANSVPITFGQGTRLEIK
Reply: 2.4 min

Query: Which measured t½ value corresponds to H1M9566N (antibody, mouse IgG1, V domains shown, Human variable domains, mouse IgG1 Fc (H1M)) VH: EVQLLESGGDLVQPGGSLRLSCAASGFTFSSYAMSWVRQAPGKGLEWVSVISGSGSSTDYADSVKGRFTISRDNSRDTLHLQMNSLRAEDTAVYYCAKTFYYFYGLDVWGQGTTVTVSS VL: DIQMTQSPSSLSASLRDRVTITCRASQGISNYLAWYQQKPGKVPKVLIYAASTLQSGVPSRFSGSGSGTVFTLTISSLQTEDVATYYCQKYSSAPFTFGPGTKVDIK ?
Reply: 29 min

Query: Look up t½: H4H9629P (antibody, human IgG4, V domains shown, Human IgG4 Fc (H4H)) VH: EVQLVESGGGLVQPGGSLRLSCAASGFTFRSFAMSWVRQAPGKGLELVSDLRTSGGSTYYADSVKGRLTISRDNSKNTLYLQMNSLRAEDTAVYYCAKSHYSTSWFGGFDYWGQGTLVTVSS VL: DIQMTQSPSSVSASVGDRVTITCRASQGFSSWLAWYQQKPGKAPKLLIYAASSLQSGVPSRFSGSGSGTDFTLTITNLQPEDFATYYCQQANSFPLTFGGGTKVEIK
Reply: 0.3 min

Query: Quick one: t½ of H4H9640P (antibody, human IgG4, V domains shown, Human IgG4 Fc (H4H)) VH: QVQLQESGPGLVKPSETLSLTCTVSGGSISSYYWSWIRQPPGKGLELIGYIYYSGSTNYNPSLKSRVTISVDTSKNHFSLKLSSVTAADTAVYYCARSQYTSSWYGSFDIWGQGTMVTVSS VL: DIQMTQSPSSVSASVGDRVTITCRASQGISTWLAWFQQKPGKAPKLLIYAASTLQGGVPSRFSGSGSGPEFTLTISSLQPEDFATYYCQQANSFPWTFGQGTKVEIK ?
Reply: 2.6 min

Query: Data request, read-out t½, for H4H9665P (antibody, human IgG4, V domains shown, Human IgG4 Fc (H4H)) VH: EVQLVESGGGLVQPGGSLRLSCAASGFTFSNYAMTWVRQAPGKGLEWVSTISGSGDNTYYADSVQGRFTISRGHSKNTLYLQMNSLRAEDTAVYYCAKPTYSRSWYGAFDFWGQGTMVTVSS VL: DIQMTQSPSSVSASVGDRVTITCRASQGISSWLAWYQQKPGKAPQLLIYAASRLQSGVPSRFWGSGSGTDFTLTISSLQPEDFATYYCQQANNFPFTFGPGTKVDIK
Reply: 5 min

Query: Would you kindly share the measured t½ for H4H9672P (antibody, human IgG4, V domains shown, Human IgG4 Fc (H4H)) VH: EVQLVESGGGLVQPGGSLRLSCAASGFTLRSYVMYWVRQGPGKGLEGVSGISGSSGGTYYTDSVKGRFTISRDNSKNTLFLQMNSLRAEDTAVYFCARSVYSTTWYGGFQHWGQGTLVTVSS VL: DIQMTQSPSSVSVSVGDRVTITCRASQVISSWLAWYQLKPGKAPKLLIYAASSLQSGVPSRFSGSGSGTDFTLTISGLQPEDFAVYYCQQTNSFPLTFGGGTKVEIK ?
Reply: 0.9 min

Query: Entry H1M9559N (antibody, mouse IgG1, V domains shown, Human variable domains, mouse IgG1 Fc (H1M)) VH: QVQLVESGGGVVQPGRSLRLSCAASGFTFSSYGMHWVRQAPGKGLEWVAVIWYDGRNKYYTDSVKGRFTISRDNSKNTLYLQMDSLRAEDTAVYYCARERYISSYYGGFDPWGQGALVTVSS VL: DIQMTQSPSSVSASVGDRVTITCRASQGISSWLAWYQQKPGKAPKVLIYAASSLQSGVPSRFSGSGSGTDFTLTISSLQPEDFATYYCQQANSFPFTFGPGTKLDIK : reported t½ = ?
Reply: 3.3 min

Query: Look up t½ for this binder: H4H9671P (antibody, human IgG4, V domains shown, Human IgG4 Fc (H4H)) VH: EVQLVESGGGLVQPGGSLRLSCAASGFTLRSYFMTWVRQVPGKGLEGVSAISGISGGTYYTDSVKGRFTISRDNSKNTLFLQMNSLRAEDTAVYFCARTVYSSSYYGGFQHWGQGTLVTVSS VL: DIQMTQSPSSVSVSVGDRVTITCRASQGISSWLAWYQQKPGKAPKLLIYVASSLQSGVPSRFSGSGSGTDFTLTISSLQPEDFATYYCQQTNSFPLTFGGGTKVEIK
Reply: 1.9 min

Query: Need t½ of H4H9664P (antibody, human IgG4, V domains shown, Human IgG4 Fc (H4H)) VH: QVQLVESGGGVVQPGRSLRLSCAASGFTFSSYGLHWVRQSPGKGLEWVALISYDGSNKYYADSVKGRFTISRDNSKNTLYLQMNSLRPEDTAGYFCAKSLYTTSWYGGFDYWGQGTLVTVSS VL: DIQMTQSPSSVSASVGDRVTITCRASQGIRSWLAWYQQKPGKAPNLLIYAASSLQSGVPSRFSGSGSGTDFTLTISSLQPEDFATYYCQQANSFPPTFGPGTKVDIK , thanks.
Reply: 2 min

Query: For H4H9662P (antibody, V domains shown, Human IgG4 Fc (H4H)) VH: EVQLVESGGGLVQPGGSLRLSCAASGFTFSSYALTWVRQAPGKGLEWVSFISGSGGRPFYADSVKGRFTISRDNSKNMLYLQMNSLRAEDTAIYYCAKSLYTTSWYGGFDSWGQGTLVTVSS VL: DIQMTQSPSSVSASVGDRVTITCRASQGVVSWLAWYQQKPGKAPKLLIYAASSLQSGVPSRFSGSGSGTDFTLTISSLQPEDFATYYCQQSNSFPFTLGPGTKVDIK , what is its reported t½?
Reply: 7 min
